Values were extracted from the supplement of paper PMC9170038.

tested on: K4 kissing-loop RNA reporter; assay: apparent KD of K4 kissing-loop reporter; higher = weaker reporter binding; settings: Eterna round: R107; input ligand: FMN 200 uM
Quantity: apparent KD of K4 kissing-loop reporter (nM)
Express your answer in nM, writing the number without its unit.

Task item: Item: UAACUCUUGCAGUGAUGUUGCAAGUAAGCUCAGGAUAUCAGGAAACUGAGAAGGGAGUAUCCUGAGCUUCUGCAAGAGCUCAGAA [KL-SSFMN-A5] Test system: K4 kissing-loop RNA reporter Read-out: apparent KD of K4 kissing-loop reporter Value: ?
Reply: 227

Task item: Reported apparent KD of K4 kissing-loop reporter for K4 kissing-loop RNA reporter, given GAUAUAGUGAUGUUAUAUACUGAUAGACAACGAGGACCGGUACGGCCGCCACUCGAGAGGGUGAAAUUAAUGAUAAAAUAAUAAU [ExyTryA#2] ?
Reply: 322

Task item: Report apparent KD of K4 kissing-loop reporter for CUUCGUAAGGGCCCAGUGAUGUUGGGCACUCGAGGACCGGUACGGCCGCCACUCGCUCCCUAAGUCGCGCGCGUGGGCCACCGCC [Rezariatra] tested on K4 kissing-loop RNA reporter.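 Note: bound reporter read as fluorescence of individual clusters on recovered sequencing chips by microscopy, with normalized cluster intensities fitted with a binding model.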
Reply: 128
